target: human glycine transporter 1b (GlyT1) (Homo sapiens, UniProt P48067); test: Inhibition of glycine transporter 1 in a cellular assay ([3H]-glycine uptake into CHO cells); conditions: pure compounds; CHO cells expressing GlyT1, 60 nM [3H]-glycine, 30 minutes, room temperature; read-out: IC50 for tritiated glycine uptake
Sequence (P48067 1-652 isoform P48067-3): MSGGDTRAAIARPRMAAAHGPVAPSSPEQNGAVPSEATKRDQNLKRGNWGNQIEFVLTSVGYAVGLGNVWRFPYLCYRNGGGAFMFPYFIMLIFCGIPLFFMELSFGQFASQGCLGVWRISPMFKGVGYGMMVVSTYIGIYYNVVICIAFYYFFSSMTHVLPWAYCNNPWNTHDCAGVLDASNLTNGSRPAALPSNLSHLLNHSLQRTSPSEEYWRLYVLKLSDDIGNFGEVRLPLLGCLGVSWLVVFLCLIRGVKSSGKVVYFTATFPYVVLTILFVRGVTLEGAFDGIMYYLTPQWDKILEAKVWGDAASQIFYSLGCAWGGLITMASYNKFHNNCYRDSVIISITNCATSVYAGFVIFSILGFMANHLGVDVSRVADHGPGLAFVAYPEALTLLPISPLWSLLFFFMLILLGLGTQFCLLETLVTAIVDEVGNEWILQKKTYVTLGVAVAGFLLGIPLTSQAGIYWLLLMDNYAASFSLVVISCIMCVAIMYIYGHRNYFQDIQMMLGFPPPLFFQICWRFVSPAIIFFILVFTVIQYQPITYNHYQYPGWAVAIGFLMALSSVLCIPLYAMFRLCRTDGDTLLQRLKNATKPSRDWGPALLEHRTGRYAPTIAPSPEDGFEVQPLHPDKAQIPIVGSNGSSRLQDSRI
pIC50: −log10 of the molar value.
Value Kind: pIC50

a = CNCC(=O)O [Sarcosine, reference compound]
b = CN(CC[C@@H](Oc1ccc(C(F)(F)F)cc1)c1ccccc1)CC(=O)O [ORG24598, reference compound]
Pick the one with the larger pIC50: a vs b Pick one; state its label. b
